Biological target: UniProtKB P48067
Sequence (P48067 whole entry): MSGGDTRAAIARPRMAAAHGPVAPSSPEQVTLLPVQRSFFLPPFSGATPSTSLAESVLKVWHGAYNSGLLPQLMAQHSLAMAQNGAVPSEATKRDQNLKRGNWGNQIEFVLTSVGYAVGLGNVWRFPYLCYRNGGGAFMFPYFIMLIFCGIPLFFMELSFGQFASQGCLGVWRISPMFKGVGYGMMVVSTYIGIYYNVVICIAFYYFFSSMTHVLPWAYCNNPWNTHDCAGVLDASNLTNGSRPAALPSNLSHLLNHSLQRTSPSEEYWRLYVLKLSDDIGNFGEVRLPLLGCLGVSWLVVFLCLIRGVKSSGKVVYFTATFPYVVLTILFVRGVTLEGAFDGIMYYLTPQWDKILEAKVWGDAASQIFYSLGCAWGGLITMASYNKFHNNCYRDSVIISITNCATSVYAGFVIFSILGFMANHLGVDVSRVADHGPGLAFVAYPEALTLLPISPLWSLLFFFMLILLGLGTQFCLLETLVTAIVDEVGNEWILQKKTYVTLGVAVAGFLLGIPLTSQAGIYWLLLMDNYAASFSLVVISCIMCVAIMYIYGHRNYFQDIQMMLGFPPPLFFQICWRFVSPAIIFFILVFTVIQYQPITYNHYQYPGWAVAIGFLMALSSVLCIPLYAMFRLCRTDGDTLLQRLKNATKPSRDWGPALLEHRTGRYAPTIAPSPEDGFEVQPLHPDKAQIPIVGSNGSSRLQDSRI
Test: Radioligand binding assay using recombinant CHO cell membranes expressing human GlyT1
Details: human GlyT1c-expressing CHO cell membranes; read-out: radioligand binding Kiapp
Text: 2. Radioligand binding assays using recombinant CHO cell membranes expressing human GlyT1: […]
Counter-ions that a name gives are not always drawn.
readout label: Ki

Worked set:
molecule: CNC1CCc2ccc(CNS(=O)(=O)c3ccn(C)n3)cc2C1Cc1ccccc1 (stereo not drawn) [Example 191, hydrochloride]
result: ≤ 1000 nM

molecule: O=C(NC1CCc2ccc(O)cc2C1Cc1ccc(Cl)cc1)OCc1ccccc1 (stereo not drawn)
result: ≤ 10000 nM

Now for a further molecule.
Field Ki (entry O=S(=O)(CC1CC1)NCCOc1ccc2c(c1)C(Cc1ccc(Cl)c(Cl)c1)C(N1CCC(F)C1)CC2 (stereo not drawn) ) reads ≤ 1000 nM
